Target: C-terminal-binding protein 1 (Homo sapiens) (UniProt Q13363)
Assay: qHTS for Inhibitors of the Phosphatase Activity of Eya2: Carboxyl-terminal binding protein (CtBP) Counterscreen for Cherry-picked Compounds; note: nearly all actives have a fitted effect of over 65% in size
Conditions: purified protein-protein binding, AlphaScreen, 3 h; series mostly up to 46.1 µM
Hit rate of the full screen: of about 1,300 compounds, about 420 (32%) were called active. Another 32% or so got no clear call; they are omitted. Calls come from the whole dose curve; as a rule, active = well fitted inhibition curve with a large enough effect; inconclusive = small, poorly fitted or top-dose-only effect; inactive = no such curve, though single readings can be large or run the other way. The list shows a part of the results.
Labels: active, inactive

compound=COc1ccc(-c2cc(=NCCC(=O)O)c3cc(C)ccc3o2)cc1 label=active
compound=Cc1c(C(=O)c2cccc3ccccc23)c2cccc3c2n1[C@H](CN1CCOCC1)CO3 label=inactive
compound="CC(N)[C@H](O)c1ccc(O)c(O)c1 (some centres undefined)" label=inactive
compound="COC1C(O)C(C)OC(OC2C(Oc3cccc4c(O)c5c(=O)oc6ccc(C)c7c(=O)oc(c34)c5c67)OC(C)C(O)C2O)C1O (centres undefined)" label=inactive
compound=Cc1c(N=Nc2c(O)[nH]c(=O)[nH]c2=O)c(=O)n(-c2ccccc2)n1C label=active
compound=COC(=O)C1=C(C)NC(C)=C(C(=O)OC)C1c1ccccc1[N+](=O)[O-] label=active
compound=Cc1cc(/C=C2\C(=O)NC(=O)N(c3ccc(Br)cc3)C2=O)c(C)n1-c1cc(C(=O)O)cc(C(=O)O)c1 label=inactive
compound=CCOc1ccc(N2C(=O)/C(=C/c3ccc(C)o3)C(=O)NC2=S)cc1 label=inactive
compound=O=C(O)c1cc[c]([Sb](=[O])([OH])[OH])cc1[N+](=O)[O-] label=inactive
